- Tgt: Receptor-type tyrosine-protein kinase FLT3 (Homo sapiens, UniProt P36888, ITD)
- Sequence (P36888 whole entry, looked up, change not shown): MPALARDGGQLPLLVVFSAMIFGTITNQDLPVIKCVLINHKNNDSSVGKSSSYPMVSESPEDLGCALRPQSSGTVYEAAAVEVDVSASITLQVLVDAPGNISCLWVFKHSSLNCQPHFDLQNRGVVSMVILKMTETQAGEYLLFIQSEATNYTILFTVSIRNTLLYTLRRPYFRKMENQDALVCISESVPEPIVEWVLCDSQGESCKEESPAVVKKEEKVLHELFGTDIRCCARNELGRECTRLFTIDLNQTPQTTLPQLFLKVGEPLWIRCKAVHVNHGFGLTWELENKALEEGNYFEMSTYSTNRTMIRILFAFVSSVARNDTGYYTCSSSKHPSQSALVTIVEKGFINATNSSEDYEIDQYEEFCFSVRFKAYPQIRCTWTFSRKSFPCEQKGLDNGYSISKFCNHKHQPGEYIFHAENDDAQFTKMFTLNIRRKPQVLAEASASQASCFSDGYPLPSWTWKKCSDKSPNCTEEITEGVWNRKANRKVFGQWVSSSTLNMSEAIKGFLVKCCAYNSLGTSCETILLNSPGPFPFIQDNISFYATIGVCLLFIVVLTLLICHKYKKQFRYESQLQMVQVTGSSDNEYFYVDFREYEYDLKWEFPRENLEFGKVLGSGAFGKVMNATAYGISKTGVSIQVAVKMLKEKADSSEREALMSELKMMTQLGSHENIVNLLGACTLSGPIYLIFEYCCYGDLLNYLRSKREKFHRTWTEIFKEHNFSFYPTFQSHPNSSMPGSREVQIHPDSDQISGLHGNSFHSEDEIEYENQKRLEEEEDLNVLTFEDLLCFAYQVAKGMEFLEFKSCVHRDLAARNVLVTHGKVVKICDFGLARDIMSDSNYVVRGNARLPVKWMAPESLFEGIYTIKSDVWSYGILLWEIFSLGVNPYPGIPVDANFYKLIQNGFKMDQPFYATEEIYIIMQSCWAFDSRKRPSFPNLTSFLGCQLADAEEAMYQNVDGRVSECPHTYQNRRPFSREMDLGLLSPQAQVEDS
- Assay: biochemical
- Format: cell-based, Sf9
- Description: Inhibition of N-terminal GST/His6-fused recombinant human FLT3 (R571 to S993 residues) ITD mutant expressed in Sf9 insect cells using poly (Ala,Glu,Lys,Tyr) 6:2:5:1 hydrobromide as substrate in presence of [gamma-33P]ATP
pIC50: −log10 of the molar value.
Measurement Name: pIC50

Solved entries (count: 3):
NCCCCNc1nc(Nc2ccc(N3CCOCC3)cc2)c2ncn(C3CCCC3)c2n1 | 8.40
N[C@H]1CC[C@H](Nc2nc(Nc3ccc(N4CCN(Cc5ccccc5)CC4)cc3)c3ncn(C4CCCC4)c3n2)CC1 | 8.22
OCCCNc1nc(Nc2ccc(CN3CCOCC3)cc2)c2ncn(C3CCCC3)c2n1 | 7.33

a. N[C@H]1CC[C@H](Nc2nc(Nc3ccc(N4CCCC4)cc3)c3ncn(C4CCCC4)c3n2)CC1
b. N[C@H]1CC[C@H](Nc2nc(Nc3ccc(Br)cc3)c3ncn(C4CCCCO4)c3n2)CC1 (stereo partly drawn)
Hello, I am sorting some records. Could you say if a or b has the smaller pIC50 value? # respond with the chosen item's label
b

a. COc1ccc(CNc2nc(Nc3ccc(CN4CCOCC4)cc3)c3ncn(C4CCCC4)c3n2)cc1
b. N[C@H]1CC[C@H](Nc2nc(Nc3ccc(N4CCOCC4)cc3)c3ncn(C4CCCC4)c3n2)CC1
c. N[C@H]1CC[C@H](Nc2nc(Nc3ccc(Cl)cc3)c3ncn(C4CCCC4)c3n2)CC1
d. N[C@H]1CC[C@H](Nc2nc(Nc3ccc(Br)cc3)c3ncn(Cc4ccccc4)c3n2)CC1
e. CC(O)CNc1nc(Nc2ccc(Br)cc2)c2ncn(Cc3ccccc3)c2n1 (stereo not drawn)
Order the entries by their reported pIC50, beginning at the minimum. Returns: the labels listed in the requested order.
e, d, a, c, b
(e: 5.01, d: 6.10, a: 6.68, c: 8.30, b: 8.70)
